Tested on: HeLa Kyoto
Assay method text: solubility change mitosis vs G1/S (difference of NP-40 vs SDS log2 ratios) (log2 ratio difference); higher = more soluble in mitosis
Values of solubility change mitosis (log2) greater than or equal to -0.2 map to yes; values below map to no.

Sequence record: MVWPWVAMASRWGPLIGLAPCCLWLLGAVLLMDASARPANHSSTRERVANREENEILPPDHLNGVKLEMDGHLNRGFHQEVFLGKDLGGFDEDAEPRRSRRKLMVIFSKVDVNTDRKISAKEMQRWIMEKTAEHFQEAMEESKTHFRAVDPDGDGHVSWDEYKVKFLASKGHSEKEVADAIRLNEELKVDEETQEVLENLKDRWYQADSPPADLLLTEEEFLSFLHPEHSRGMLRFMVKEIVRDLDQDGDKQLSVPEFISLPVGTVENQQGQDIDDNWVKDRKKEFEELIDSNHDGIVTAEELESYMDPMNEYNALNEAKQMIAVADENQNHHLEPEEVLKYSEFFTGSKLVDYARSVHEEF [SDF4]
Assigned label: yes
--
Sequence record: MDKQNSQMNASHPETNLPVGYPPQYPPTAFQGPPGYSGYPGPQVSYPPPPAGHSGPGPAGFPVPNQPVYNQPVYNQPVGAAGVPWMPAPQPPLNCPPGLEYLSQIDQILIHQQIELLEVLTGFETNNKYEIKNSFGQRVYFAAEDTDCCTRNCCGPSRPFTLRIIDNMGQEVITLERPLRCSSCCCPCCLQEIEIQAPPGVPIGYVIQTWHPCLPKFTIQNEKREDVLKISGPCVVCSCCGDVDFEIKSLDEQCVVGKISKHWTGILREAFTDADNFGIQFPLDLDVKMKAVMIGACFLIDFMFFESTGSQEQKSGVW [PLSCR1]
Assigned label: no
--
Sequence record: MASSEQAEQPSQPSSTPGSENVLPREPLIATAVKFLQNSRVRQSPLATRRAFLKKKGLTDEEIDMAFQQSGTAADEPSSLGPATQVVPVQPPHLISQPYSPAGSRWRDYGALAIIMAGIAFGFHQLYKKYLLPLILGGREDRKQLERMEAGLSELSGSVAQTVTQLQTTLASVQELLIQQQQKIQELAHELAAAKATTSTNWILESQNINELKSEINSLKGLLLNRRQFPPSPSAPKIPSWQIPVKSPSPSSPAAVNHHSSSDISPVSNESTSSSPGKEGHSPEGSTVTYHLLGPQEEGEGVVDVKGQVRMEVQGEEEKREDKEDEEDEEDDDVSHVDEEDCLGVQREDRRGGDGQINEQVEKLRRPEGASNESERD [PEX14]
Assigned label: yes
--
Sequence record: MRSGGRGRPRLRLGERGLMEPLLPPKRRLLPRVRLLPLLLALAVGSAFYTIWSGWHRRTEELPLGRELRVPLIGSLPEARLRRVVGQLDPQRLWSTYLRPLLVVRTPGSPGNLQVRKFLEATLRSLTAGWHVELDPFTASTPLGPVDFGNVVATLDPRAARHLTLACHYDSKLFPPGSTPFVGATDSAVPCALLLELAQALDLELSRAKKQAAPVTLQLLFLDGEEALKEWGPKDSLYGSRHLAQLMESIPHSPGPTRIQAIELFMLLDLLGAPNPTFYSHFPRTVRWFHRLRSIEKRLHRLNLLQSHPQEVMYFQPGEPFGSVEDDHIPFLRRGVPVLHLISTPFPAVWHTPADTEVNLHPPTVHNLCRILAVFLAEYLGL [QPCTL]
Assigned label: yes
--
Sequence record: MAAPKGSLWVRTQLGLPPLLLLTMALAGGSGTASAEAFDSVLGDTASCHRACQLTYPLHTYPKEEELYACQRGCRLFSICQFVDDGIDLNRTKLECESACTEAYSQSDEQYACHLGCQNQLPFAELRQEQLMSLMPKMHLLFPLTLVRSFWSDMMDSAQSFITSSWTFYLQADDGKIVIFQSKPEIQYAPHLEQEPTNLRESSLSKMSYLQMRNSQAHRNFLEDGESDGFLRCLSLNSGWILTTTLVLSVMVLLWICCATVATAVEQYVPSEKLSIYGDLEFMNEQKLNRYPASSLVVVRSKTEDHEEAGPLPTKVNLAHSEI [TMEM59]
Assigned label: yes
--
Sequence record: MAHQTGIHATEELKEFFAKARAGSVRLIKVVIEDEQLVLGASQEPVGRWDQDYDRAVLPLLDAQQPCYLLYRLDSQNAQGFEWLFLAWSPDNSPVRLKMLYAATRATVKKEFGGGHIKDELFGTVKDDLSFAGYQKHLSSCAAPAPLTSAERELQQIRINEVKTEISVESKHQTLQGLAFPLQPEAQRALQQLKQKMVNYIQMKLDLERETIELVHTEPTDVAQLPSRVPRDAARYHFFLYKHTHEGDPLESVVFIYSMPGYKCSIKERMLYSSCKSRLLDSVEQDFHLEIAKKIEIGDGAELTAEFLYDEVHPKQHAFKQAFAKPKGPGGKRGHKRLIRGPGENGDDS [TWF2]
Assigned label: no
--
Sequence record: MDAAEVEFLAEKELVTIIPNFSLDKIYLIGGDLGPFNPGLPVEVPLWLAINLKQRQKCRLLPPEWMDVEKLEKMRDHERKEETFTPMPSPYYMELTKLLLNHASDNIPKADEIRTLVKDMWDTRIAKLRVSADSFVRQQEAHAKLDNLTLMEINTSGTFLTQALNHMYKLRTNLQPLESTQSQDF [GINS2]
Assigned label: yes
--
Sequence record: MAVTEASLLRQCPLLLPQNRSKTVYEGFISAQGRDFHLRIVLPEDLQLKNARLLCSWQLRTILSGYHRIVQQRMQHSPDLMSFMMELKMLLEVALKNRQELYALPPPPQFYSSLIEEIGTLGWDKLVYADTCFSTIKLKAEDASGREHLITLKLKAKYPAESPDYFVDFPVPFCASWTPQSSLISIYSQFLAAIESLKAFWDVMDEIDEKTWVLEPEKPPRSATARRIALGNNVSINIEVDPRHPTMLPECFFLGADHVVKPLGIKLSRNIHLWDPENSVLQNLKDVLEIDFPARAILEKSDFTMDCGICYAYQLDGTIPDQVCDNSQCGQPFHQICLYEWLRGLLTSRQSFNIIFGECPYCSKPITLKMSGRKH [FANCL]
Assigned label: yes
--
Sequence record: MSSDFEGYEQDFAVLTAEITSKIARVPRLPPDEKKQMVANVEKQLEEAKELLEQMDLEVREIPPQSRGMYSNRMRSYKQEMGKLETDFKRSRIAYSDEVRNELLGDDGNSSENQRAHLLDNTERLERSSRRLEAGYQIAVETEQIGQEMLENLSHDREKIQRARERLRETDANLGKSSRILTGMLRRIIQNRILLVILGIIVVITILMAITFSVRRH [VTI1A]
Assigned label: yes

* * *

Tested on: HeLa Kyoto
Assay method text: thermal stability score vs G1/S (z-score of summed log2 fold changes over temperatures); higher = more thermally stable than in G1/S
Run conditions: cell cycle stage: mitosis
Parameter: thermal stability score

Sequence record: MSGDSSGRGPEGRGRGRDPHRDRTRSRSRSRSPLSPRSRRGSARERREAPERPSLEDTEPSDSGDEMMDPASLEAEADQGLCRQIRHQYRALINSVQQNREDILNAGDKLTEVLEEANTLFNEVSRAREAVLDAHFLVLASDLGKEKAKQLRSDLSSFDMLRYVETLLTHMGVNPLEAEELIRDEDSPDFEFIVYDSWKITGRTAENTFNKTHTFHFLLGSIYGECPVPKPRVDRPRKVPVIQEERAMPAQLRRMEESHQEATEKEVERILGLLQTYFREDPDTPMSFFDFVVDPHSFPRTVENIFHVSFIIRDGFARIRLDQDRLPVIEPVSINEENEGFEHNTQVRNQGIIALSYRDWEEIVKTFEISEPVITPSQRQQKPSA [NSMCE4A]
Parameter: thermal stability score
Quantitative readout: -1.49

Sequence record: MACAAVMIPGLLRCSVGAIRIEAASLRLTLSTLRHLTLTSIMKSKRKTDHMERTASVLRREIVSAAKVCGAASESPSVKSLRLLVADQDFSFKAGQWVDFFIPGVSVVGGFSICSSPRLLEQERVIELAVKYTNHPPALWVHNTCTLDCEVAVRVGGEFFFDPQPADASRNLVLIAGGVGINPLLSILRHAADLLREQANKRNGYEIGTIKLFYSAKNTSELLFKKNILDLVNEFPEKIACSLHVTKQTTQINAELKPYITEGRITEKEIRDHISKETLFYICGPPPMTDFFSKQLENNHVPKEHICFEKWW [OXNAD1]
Parameter: thermal stability score
Quantitative readout: -0.938

Sequence record: MANIAVQRIKREFKEVLKSEETSKNQIKVDLVDENFTELRGEIAGPPDTPYEGGRYQLEIKIPETYPFNPPKVRFITKIWHPNISSVTGAICLDILKDQWAAAMTLRTVLLSLQALLAAAEPDDPQDAVVANQYKQNPEMFKQTARLWAHVYAGAPVSSPEYTKKIENLCAMGFDRNAVIVALSSKSWDVETATELLLSN [UBE2K]
Parameter: thermal stability score
Quantitative readout: 0.646

Sequence record: MMKLKSNQTRTYDGDGYKKRAACLCFRSESEEEVLLVSSSRHPDRWIVPGGGMEPEEEPSVAAVREVCEEAGVKGTLGRLVGIFENQERKHRTYVYVLIVTEVLEDWEDSVNIGRKREWFKIEDAIKVLQYHKPVQASYFETLRQGYSANNGTPVVATTYSVSAQSSMSGIR [NUDT3]
Parameter: thermal stability score
Quantitative readout: -1.36

Sequence record: MEPRAVGVSKQDIREQIWGYMESQNLADFPRPVHHRIPNFKGSYLACQNIKDLDVFARTQEVKVDPDKPLEGVRLLVLQSKKTLLVPTPRLRTGLFNKITPPPGATKDILRKCATSQGVRNYSVPIGLDSRVLVDLVVVGSVAVSEKGWRIGKGEGYADLEYAMMVSMGAVSKETPVVTIVHDCQVVDIPEELVEEHDITVDYILTPTRVIATGCKRPKPMGITWFKISLEMMEKIPILRSLRAREQQAGKDVTLQGEHQHLPEPGCQQTVPLSVGRRPPDTPGPETNSMEAAPGSPPGEGAPLAADVYVGNLPGDARVSDLKRALRELGSVPLRLTWQGPRRRAFLHYPDSAAAQQAVSCLQGLRLGTDTLRVALARQQRDK [MTHFSD]
Parameter: thermal stability score
Quantitative readout: -0.971
